# System: Enterococcus faecalis
# experimentalProtocol: Antibacterial activity against Enterococcus faecalis ATCC 6569 at 10 % serum
# Format: functional
# testParameters: ATCC 6569, Serum
measure: MIC (mg/L)

- structureSmiles: "CCCCCCCCCC(=O)N[C@@H](Cc1c[nH]c2ccccc12)C(=O)N[C@H](CC(N)=O)C(=O)N[C@@H](CCO)C(=O)N[C@@H]1C(=O)NCC(=O)N[C@@H](CCCNCc2ccc(OCc3ccccc3)cc2)C(=O)N[C@@H](CC(=O)O)C(=O)N[C@H](C)C(=O)N[C@@H](CC(=O)O)C(=O)NCC(=O)N[C@H](CO)C(=O)N[C@@H]([C@H](C)CC(=O)O)C(=O)N[C@@H](CC(=O)c2ccccc2N)C(=O)O[C@@H]1C"
  unitSymbol: "mg/L"
  reportedMeasurement: 12.5
- structureSmiles: "CCCCCCCCCC(=O)N[C@@H](Cc1c[nH]c2ccccc12)C(=O)N[C@H](CC(N)=O)C(=O)N[C@@H](CCO)C(=O)N[C@@H]1C(=O)NCC(=O)N[C@@H](CCCNCc2ccc(F)cc2F)C(=O)N[C@@H](CC(=O)O)C(=O)N[C@H](C)C(=O)N[C@@H](CC(=O)O)C(=O)NCC(=O)N[C@H](CO)C(=O)N[C@@H]([C@H](C)CC(=O)O)C(=O)N[C@@H](CC(=O)c2ccccc2N)C(=O)O[C@@H]1C"
  unitSymbol: "mg/L"
  reportedMeasurement: 12.5
- structureSmiles: "CCCCCCCCCC(=O)N[C@@H](Cc1c[nH]c2ccccc12)C(=O)N[C@H](CC(N)=O)C(=O)N[C@@H](CCO)C(=O)N[C@@H]1C(=O)NCC(=O)N[C@@H](CCCNCc2ccc(S(=O)(=O)N3CCN(c4ncccn4)CC3)cc2)C(=O)N[C@@H](CC(=O)O)C(=O)N[C@H](C)C(=O)N[C@@H](CC(=O)O)C(=O)NCC(=O)N[C@H](CO)C(=O)N[C@@H]([C@H](C)CC(=O)O)C(=O)N[C@@H](CC(=O)c2ccccc2N)C(=O)O[C@@H]1C"
  unitSymbol: "mg/L"
  reportedMeasurement: 6.25

----------
# Test system: Enterococcus faecium
# experimentalProtocol: Antibacterial activity against Enterococcus faecium ATCC 49452 at 10 % serum
# Assay type: functional
# testParameters: ATCC 49452, Serum
measure: MIC (mg/L)

- structureSmiles: "CCCCCCCCCC(=O)N[C@@H](Cc1c[nH]c2ccccc12)C(=O)N[C@H](CC(N)=O)C(=O)N[C@@H](CCO)C(=O)N[C@@H]1C(=O)NCC(=O)N[C@@H](CCCNCc2ccc(S(=O)(=O)N3CCN(c4ccccc4)CC3)cc2)C(=O)N[C@@H](CC(=O)O)C(=O)N[C@H](C)C(=O)N[C@@H](CC(=O)O)C(=O)NCC(=O)N[C@H](CO)C(=O)N[C@@H]([C@H](C)CC(=O)O)C(=O)N[C@@H](CC(=O)c2ccccc2N)C(=O)O[C@@H]1C"
  unitSymbol: "mg/L"
  reportedMeasurement: 12.5
- structureSmiles: "CCCCCCCCCC(=O)N[C@@H](Cc1c[nH]c2ccccc12)C(=O)N[C@H](CC(N)=O)C(=O)N[C@@H](CCO)C(=O)N[C@@H]1C(=O)NCC(=O)N[C@@H](CCCNCc2ccc(C(=O)N3CCN(c4ccccc4)CC3)cc2)C(=O)N[C@@H](CC(=O)O)C(=O)N[C@H](C)C(=O)N[C@@H](CC(=O)O)C(=O)NCC(=O)N[C@H](CO)C(=O)N[C@@H]([C@H](C)CC(=O)O)C(=O)N[C@@H](CC(=O)c2ccccc2N)C(=O)O[C@@H]1C"
  unitSymbol: "mg/L"
  reportedMeasurement: 6.25
- structureSmiles: "CCCCCCCCCC(=O)N[C@@H](Cc1c[nH]c2ccccc12)C(=O)N[C@H](CC(N)=O)C(=O)N[C@@H](CCO)C(=O)N[C@@H]1C(=O)NCC(=O)N[C@@H](CCCNCc2ccc(S(=O)(=O)NCc3ccc(C(F)(F)F)cc3)cc2)C(=O)N[C@@H](CC(=O)O)C(=O)N[C@H](C)C(=O)N[C@@H](CC(=O)O)C(=O)NCC(=O)N[C@H](CO)C(=O)N[C@@H]([C@H](C)CC(=O)O)C(=O)N[C@@H](CC(=O)c2ccccc2N)C(=O)O[C@@H]1C"
  unitSymbol: "mg/L"
  reportedMeasurement: 6.25
- structureSmiles: "CCCCCCCCCC(=O)N[C@@H](Cc1c[nH]c2ccccc12)C(=O)N[C@H](CC(N)=O)C(=O)N[C@@H](CCO)C(=O)N[C@@H]1C(=O)NCC(=O)N[C@@H](CCCNCc2ccc(F)cc2F)C(=O)N[C@@H](CC(=O)O)C(=O)N[C@H](C)C(=O)N[C@@H](CC(=O)O)C(=O)NCC(=O)N[C@H](CO)C(=O)N[C@@H]([C@H](C)CC(=O)O)C(=O)N[C@@H](CC(=O)c2ccccc2N)C(=O)O[C@@H]1C"
  unitSymbol: "mg/L"
  reportedMeasurement: 25

----------
# Test system: Enterococcus faecium
# experimentalProtocol: Antibacterial activity against Enterococcus faecium ATCC 49452 at 10 % serum
# Assay type: functional
# testParameters: ATCC 49452, Serum

- structureSmiles: "CCCCCCCCCC(=O)N[C@@H](Cc1c[nH]c2ccccc12)C(=O)N[C@H](CC(N)=O)C(=O)N[C@@H](CCO)C(=O)N[C@@H]1C(=O)NCC(=O)N[C@@H](CCCNCc2ccc(OCc3ccc(F)cc3)c([N+](=O)[O-])c2)C(=O)N[C@@H](CC(=O)O)C(=O)N[C@H](C)C(=O)N[C@@H](CC(=O)O)C(=O)NCC(=O)N[C@H](CO)C(=O)N[C@@H]([C@H](C)CC(=O)O)C(=O)N[C@@H](CC(=O)c2ccccc2N)C(=O)O[C@@H]1C"
  MIC / µg/mL: 25
- structureSmiles: "CCCCCCCCCC(=O)N[C@@H](Cc1c[nH]c2ccccc12)C(=O)N[C@H](CC(N)=O)C(=O)N[C@@H](CCO)C(=O)N[C@@H]1C(=O)NCC(=O)N[C@@H](CCCNCc2ccccc2N)C(=O)N[C@@H](CC(=O)O)C(=O)N[C@H](C)C(=O)N[C@@H](CC(=O)O)C(=O)NCC(=O)N[C@H](CO)C(=O)N[C@@H]([C@H](C)CC(=O)O)C(=O)N[C@@H](CC(=O)c2ccccc2N)C(=O)O[C@@H]1C"
  MIC / µg/mL: 6.25
- structureSmiles: "CCCCCCCCCC(=O)N[C@@H](Cc1c[nH]c2ccccc12)C(=O)N[C@H](CC(N)=O)C(=O)N[C@@H](CCO)C(=O)N[C@@H]1C(=O)NCC(=O)N[C@@H](CCCNCc2ccc(C(=O)N3CCN(Cc4ccccc4)CC3)cc2)C(=O)N[C@@H](CC(=O)O)C(=O)N[C@H](C)C(=O)N[C@@H](CC(=O)O)C(=O)NCC(=O)N[C@H](CO)C(=O)N[C@@H]([C@H](C)CC(=O)O)C(=O)N[C@@H](CC(=O)c2ccccc2N)C(=O)O[C@@H]1C"
  MIC / µg/mL: 6.25
- structureSmiles: "CCCCCCCCCC(=O)N[C@@H](Cc1c[nH]c2ccccc12)C(=O)N[C@H](CC(N)=O)C(=O)N[C@@H](CCO)C(=O)N[C@@H]1C(=O)NCC(=O)N[C@@H](CCCNCc2cccc([N+](=O)[O-])c2)C(=O)N[C@@H](CC(=O)O)C(=O)N[C@H](C)C(=O)N[C@@H](CC(=O)O)C(=O)NCC(=O)N[C@H](CO)C(=O)N[C@@H]([C@H](C)CC(=O)O)C(=O)N[C@@H](CC(=O)c2ccccc2N)C(=O)O[C@@H]1C"
  MIC / µg/mL: 12.5
- structureSmiles: "CCCCCCCCCC(=O)N[C@@H](Cc1c[nH]c2ccccc12)C(=O)N[C@H](CC(N)=O)C(=O)N[C@@H](CCO)C(=O)N[C@@H]1C(=O)NCC(=O)N[C@@H](CCCNCc2ccc(OCc3ccccc3)cc2)C(=O)N[C@@H](CC(=O)O)C(=O)N[C@H](C)C(=O)N[C@@H](CC(=O)O)C(=O)NCC(=O)N[C@H](CO)C(=O)N[C@@H]([C@H](C)CC(=O)O)C(=O)N[C@@H](CC(=O)c2ccccc2N)C(=O)O[C@@H]1C"
  MIC / µg/mL: 25
- structureSmiles: "CCCCCCCCCC(=O)N[C@@H](Cc1c[nH]c2ccccc12)C(=O)N[C@H](CC(N)=O)C(=O)N[C@@H](CCO)C(=O)N[C@@H]1C(=O)NCC(=O)N[C@@H](CCCNCc2ccc(N3CCN(Cc4ccccc4)CC3)cc2)C(=O)N[C@@H](CC(=O)O)C(=O)N[C@H](C)C(=O)N[C@@H](CC(=O)O)C(=O)NCC(=O)N[C@H](CO)C(=O)N[C@@H]([C@H](C)CC(=O)O)C(=O)N[C@@H](CC(=O)c2ccccc2N)C(=O)O[C@@H]1C"
  MIC / µg/mL: 25
- structureSmiles: "CCCCCCCCCC(=O)N[C@@H](Cc1c[nH]c2ccccc12)C(=O)N[C@H](CC(N)=O)C(=O)N[C@@H](CCO)C(=O)N[C@@H]1C(=O)NCC(=O)N[C@@H](CCCNCc2ccccc2[N+](=O)[O-])C(=O)N[C@@H](CC(=O)O)C(=O)N[C@H](C)C(=O)N[C@@H](CC(=O)O)C(=O)NCC(=O)N[C@H](CO)C(=O)N[C@@H]([C@H](C)CC(=O)O)C(=O)N[C@@H](CC(=O)c2ccccc2N)C(=O)O[C@@H]1C"
  MIC / µg/mL: 25
- structureSmiles: "CCCCCCCCCC(=O)N[C@@H](Cc1c[nH]c2ccccc12)C(=O)N[C@H](CC(N)=O)C(=O)N[C@@H](CCO)C(=O)N[C@@H]1C(=O)NCC(=O)N[C@@H](CCCNCc2ccc3ccccc3n2)C(=O)N[C@@H](CC(=O)O)C(=O)N[C@H](C)C(=O)N[C@@H](CC(=O)O)C(=O)NCC(=O)N[C@H](CO)C(=O)N[C@@H]([C@H](C)CC(=O)O)C(=O)N[C@@H](CC(=O)c2ccccc2N)C(=O)O[C@@H]1C"
  MIC / µg/mL: 25
- structureSmiles: "CCCCCCCCCC(=O)N[C@@H](Cc1c[nH]c2ccccc12)C(=O)N[C@H](CC(N)=O)C(=O)N[C@@H](CCO)C(=O)N[C@@H]1C(=O)NCC(=O)N[C@@H](CCCNCc2ccc(OCc3ccccc3)cc2O)C(=O)N[C@@H](CC(=O)O)C(=O)N[C@H](C)C(=O)N[C@@H](CC(=O)O)C(=O)NCC(=O)N[C@H](CO)C(=O)N[C@@H]([C@H](C)CC(=O)O)C(=O)N[C@@H](CC(=O)c2ccccc2N)C(=O)O[C@@H]1C"
  MIC / µg/mL: 100
- structureSmiles: "CCCCCCCCCC(=O)N[C@@H](Cc1c[nH]c2ccccc12)C(=O)N[C@H](CC(N)=O)C(=O)N[C@@H](CCO)C(=O)N[C@@H]1C(=O)NCC(=O)N[C@@H](CCCNCc2ccc(/C=C/C(=O)N3CCN(c4ccc(Cl)c(Cl)c4)CC3)cc2)C(=O)N[C@@H](CC(=O)O)C(=O)N[C@H](C)C(=O)N[C@@H](CC(=O)O)C(=O)NCC(=O)N[C@H](CO)C(=O)N[C@@H]([C@H](C)CC(=O)O)C(=O)N[C@@H](CC(=O)c2ccccc2N)C(=O)O[C@@H]1C"
  MIC / µg/mL: 50
